Where these numbers come from: PubChem BioAssay (NCI)

System: OVCAR-5 ovarian
Test: NCI-60 one-dose screen, 48 h
Details: 10 µM unless noted
About 83,000 compounds went through this panel and 20% of them were active in at least one assay; those are over-represented in the sample as a whole. Calls of active or inactive are those of the source. Rule for the calls: active = growth percent below 10; inactive = the rest.
Labels: TRUE for active, FALSE for inactive

# Molecule, Assigned Class
data = [
    ("Cc1nn(-c2ccccc2)c2nc(C)n(C(=O)N/N=C/c3ccccc3)c(=O)c12", "FALSE"),
    ("O=C(c1ccc(O)cc1)C1[C@H](c2ccc(Cl)cc2)[C@@H](c2ccccc2)NC12C(=O)Nc1ccc(Br)cc12 (stereo partly drawn)", "TRUE"),
    ("COc1cc(-c2ccc3ncnc(N4CCc5ccc(Cl)cc54)c3c2)cnc1Cl", "FALSE"),
    ("COc1ccc2[nH]cc(-c3cc4nc(-c5cn(C)c6ncccc56)cc(N)n4n3)c2c1", "TRUE"),
    ("CN(C)c1nc(NCCNS(=O)(=O)c2ccc(C(=O)/C=C/c3ccc(F)cc3)cc2)nc(N2CCOCC2)n1", "FALSE"),
    ("COc1ccc2[nH]cc(-c3cc4nc(-c5cn(C)c6ncc(Br)cc56)cc(N)n4n3)c2c1", "TRUE"),
    ("Cn1cc(-c2cc(N)n3nc(-c4c[nH]c5ccccc45)cc3n2)c2cc(Cl)ccc21", "TRUE"),
    ("O=C1Nc2ccccc2/C1=C/C(=O)c1cc2ccccc2oc1=O", "FALSE"),
    ("OC(c1ccccc1)(c1ccccc1)C1CCN(c2ccc3nnc(Cl)n3n2)CC1", "FALSE"),
    ("FC(F)(F)CN1CCN(CCn2c(C(F)(F)F)cc3c(Cl)ncnc32)CC1", "FALSE"),
    ("CC[C@]12C=CCN3CC[C@]4(C(=C(C(=O)OC)C1)Nc1cc(OC)c([C@@H]5[C@H]6O[C@H]6[C@@]6(CC)CC(C(=O)OC)=C7Nc8cc(O)ccc8[C@@]78CCN5[C@@H]68)cc14)[C@@H]32", "TRUE"),
    ("Cc1[nH]nc2ccc3nc(-c4cn[nH]c4C(F)(F)F)c4c(c3c12)CCCC4", "TRUE"),
    ("COc1ccc(NC(=O)Cn2c(/C=C/c3ccc([N+](=O)[O-])cc3)nc3ccccc3c2=O)cc1", "FALSE"),
    ("C=CCSc1nnc(-c2c(C)nc3sccn23)o1", "FALSE"),
    ("CN1CCc2c(sc3ncnc(N/N=C/c4cccc(Cl)c4Cl)c23)C1", "FALSE"),
    ("O=c1[nH]c2ccccc2cc1COc1ccc(Nc2nccc(-c3ccc(Cl)cc3)n2)cc1", "FALSE"),
    ("Cc1ccc(C(=O)Nc2cc(-n3cnc(F)c3)cc(C(F)(F)F)c2)cc1C#Cc1cnc2cccnn12", "FALSE"),
    ("Cc1ccc(O)cc1Nc1nc(SCCN2CCOCC2)nc2c1cnn2CC(Cl)c1ccc(Br)cc1 (stereo not drawn)", "FALSE"),
]
